- studyTarget: glycine transporter encoded by rB20a (Rattus norvegicus, UniProt P28572)
- Sequence (P28572 whole entry): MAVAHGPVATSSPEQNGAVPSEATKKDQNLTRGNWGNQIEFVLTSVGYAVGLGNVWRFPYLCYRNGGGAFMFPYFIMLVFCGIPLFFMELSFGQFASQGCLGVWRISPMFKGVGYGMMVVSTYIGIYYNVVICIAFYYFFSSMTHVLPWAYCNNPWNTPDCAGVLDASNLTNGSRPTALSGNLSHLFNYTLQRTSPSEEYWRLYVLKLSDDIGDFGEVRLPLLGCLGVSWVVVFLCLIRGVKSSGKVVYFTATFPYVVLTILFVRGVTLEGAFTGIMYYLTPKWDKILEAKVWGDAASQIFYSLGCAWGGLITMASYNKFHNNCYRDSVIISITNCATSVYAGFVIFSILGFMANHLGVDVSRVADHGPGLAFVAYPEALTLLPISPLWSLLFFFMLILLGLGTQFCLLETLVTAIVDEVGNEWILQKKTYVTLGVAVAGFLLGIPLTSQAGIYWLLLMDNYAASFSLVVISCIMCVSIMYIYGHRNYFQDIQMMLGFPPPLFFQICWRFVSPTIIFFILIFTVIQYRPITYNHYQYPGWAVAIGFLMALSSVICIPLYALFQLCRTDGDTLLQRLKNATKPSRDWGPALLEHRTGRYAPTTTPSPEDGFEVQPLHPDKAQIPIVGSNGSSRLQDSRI
- measurementDescription: Competition for [3H]glycine uptake by COS-7 cells transfected with rB20a
- details: estimated from inhibition at three concentrations
pIC50: −log10 of the molar value.
endpoint: pIC50

Fill in pIC50 for record `CNCC(=O)O`
~4.30
